- Tested on: Macrophomina phaseolina
- assay_protocol: Antifungal activity against Rhizoctonia bataticola assessed as inhibition of fungal growth
- Assay type: functional
- condition_set: read-out: ED50 (the source's name)

| smiles_notation | readout_units | EC50 |
| --- | --- | --- |
| CCCCCCc1cc(C)cc(=O)o1 | µg/mL | 24.5 |
| Cc1cc(CCl)oc(=O)c1 | µg/mL | 111 |
| CCc1cc(C)cc(=O)o1 | µg/mL | 626 |
| CCCCCCCCCCc1cc(C)cc(=O)o1 | µg/mL | 649 |
| CCCCc1cc(C)cc(=O)o1 | µg/mL | 212 |
| CCCCCCCCCc1cc(C)cc(=O)o1 | µg/mL | 213 |
| C=C(C)c1cc(C)cc(=O)o1 | µg/mL | 374 |
| CCCCCc1cc(C)cc(=O)o1 | µg/mL | 34.2 |

====

Measured EC50 values are reported for all entries that follow.
- Test system: Globisporangium debaryanum
- assay_protocol: Antifungal activity against Pythium debaryanum assessed as inhibition of fungal growth
- Type: functional
- condition_set: read-out: ED50 (the source's name)

| molecule | EC50 [µg/mL] |
| --- | --- |
| CCCCCCCc1cc(C)cc(=O)o1 | 71.7 |
| CCCCc1cc(C)cc(=O)o1 | 143 |
| CCCCCCCCc1cc(C)cc(=O)o1 | 175 |
| CC(C)=Cc1cc(C)cc(=O)o1 | 264 |
| Cc1cc(CCl)oc(=O)c1 | 102 |
| Cc1cc(C)oc(=O)c1 | 1140 |
| CCc1cc(C)cc(=O)o1 | 580 |
| CCCCCCc1cc(C)cc(=O)o1 | 14.9 |
| CCCCC(CC)c1cc(C)cc(=O)o1 (stereo not drawn) | 151 |
| CCCCC(O)(Cn1cncn1)c1ccc(Cl)cc1Cl (stereo not drawn) | 12.3 |
| C/C=C/c1cc(C)cc(=O)o1 | 95.5 |
| Cc1cc(C(C)C)oc(=O)c1 | 437 |
| CCCc1cc(C)cc(=O)o1 | 288 |
| CCCCCCCCCCc1cc(C)cc(=O)o1 | 594 |
| CCCCCCCCCc1cc(C)cc(=O)o1 | 284 |
| CCCCCc1cc(C)cc(=O)o1 | 20.6 |
| Cc1cc(CC(C)C)oc(=O)c1 | 37 |
| C=C(C)c1cc(C)cc(=O)o1 | 189 |

====

- System: Macrophomina phaseolina
- assay_protocol: Antifungal activity against Rhizoctonia bataticola assessed as inhibition of fungal growth
- Type: functional
- condition_set: read-out: ED50 (the source's name)
Binned EC50; ranges: bin 1 = under 100 µg/mL, bin 2 = from 100 µg/mL up to 400 µg/mL, bin 3 = 400 µg/mL and over

| compound | discrete_label |
| --- | --- |
| CCCCC(CC)c1cc(C)cc(=O)o1 (stereo not given) | bin 2 |
| CC(C)=Cc1cc(C)cc(=O)o1 | bin 2 |
| CCCCCCCCc1cc(C)cc(=O)o1 | bin 2 |
| C/C=C/c1cc(C)cc(=O)o1 | bin 2 |
| Cc1cc(C)oc(=O)c1 | bin 3 |
| Cc1cc(CC(C)C)oc(=O)c1 | bin 1 |
| CCCCC(O)(Cn1cncn1)c1ccc(Cl)cc1Cl (stereo not given) | bin 1 |
| CCCc1cc(C)cc(=O)o1 | bin 3 |
| CCCCCCCc1cc(C)cc(=O)o1 | bin 1 |
